Please provide measured Ki for D2 / Ki for D1 for the entries that follow.
Target: D2 dopamine receptors (Rattus norvegicus, UniProt P61169)
Construct: Striatal samples from the brains of male Charles River CD rats; from tissue; host or cells: striatum of male Charles River CD rats (washed membrane pellet)
Sequence (P61169 whole entry): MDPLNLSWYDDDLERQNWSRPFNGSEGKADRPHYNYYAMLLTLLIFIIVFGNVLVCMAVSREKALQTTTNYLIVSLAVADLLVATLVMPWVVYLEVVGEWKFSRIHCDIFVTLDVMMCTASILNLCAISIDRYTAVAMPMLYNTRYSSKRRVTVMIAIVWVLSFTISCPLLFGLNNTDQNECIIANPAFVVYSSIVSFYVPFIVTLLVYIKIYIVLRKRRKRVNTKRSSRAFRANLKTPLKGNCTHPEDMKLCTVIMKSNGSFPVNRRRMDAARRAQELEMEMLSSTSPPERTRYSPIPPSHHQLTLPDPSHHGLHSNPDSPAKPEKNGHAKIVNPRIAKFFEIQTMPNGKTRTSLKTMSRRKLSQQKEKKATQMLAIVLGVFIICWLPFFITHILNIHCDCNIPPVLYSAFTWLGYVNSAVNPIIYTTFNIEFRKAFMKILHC
Assay: D2 dopamine receptor binding: inhibition of tritiated (S)-sulpiride binding, rat striatal samples
Design: species or system rat (male Charles River CD rats)
Settings: ratio to two significant figures
One number for each entry.

1. COc1cc2c(cc1O)C(C1(c3ccc(Cl)cc3Cl)CCC1)N(C)CC2 (stereo not drawn); 8800
2. CN1CCc2ccc(O)cc2C1C1(c2ccccc2)CCC1 (stereo not drawn); 160
3. CN1CCc2cc(F)c(O)cc2C1C1(c2ccc(Cl)cc2Cl)CCC1 (stereo not drawn); 950

Answer for every listed entry: what is its Ki for D2 / Ki for D1? The entries follow.
1. CN1CCc2cc(O)c(O)cc2C1C1(c2ccc(Cl)cc2)CC1 (stereo not drawn)
2. COc1cc2c(cc1O)C(C1(c3ccccc3Cl)CCC1)N(C)CC2 (stereo not drawn) [Example 35]
3. Cc1cc2c(cc1O)C(C1(c3ccccc3Cl)CCC1)N(C)CC2 (stereo not drawn)
4. CN1CCc2cc(F)c(O)cc2C1C1(c2ccccc2Cl)CCC1 (single isomer, unassigned; (+)) [Example 64]

Response:
1. 84
2. 180000
3. 1600
4. 2000

Answer for every listed entry: what is its Ki for D2 / Ki for D1? The entries follow.
1. Cc1cc2c(cc1O)C(C1(c3ccccc3Cl)CC1)N(C)CC2 (stereo not drawn) [Example 79]
2. CN1CCc2cc(F)c(O)cc2C1C1(c2ccccc2)CCC1 (stereo not drawn)

Response:
1. 780
2. 280000

Answer for every listed entry: what is its Ki for D2 / Ki for D1? The entries follow.
1. CN1CCc2cc(F)c(O)cc2C1C1(c2ccccc2Cl)CC1 (single isomer, unassigned; (+)) [Example 62]
2. CN1CCc2cc(Cl)c(O)cc2C1C1(c2ccccc2)CCC1 (stereo not drawn) [Example 28]
3. CN1CCc2cc(F)c(O)cc2C1C1(c2ccc(Cl)cc2)CCC1 (stereo not drawn)
4. CN1CCc2c(Cl)ccc(O)c2C1C1(c2ccccc2)CCC1 (stereo not drawn)

Response:
1100
330
3900
37

Answer for every listed entry: what is its Ki for D2 / Ki for D1? The entries follow.
1. COc1cc2c(cc1O)C(C1(c3ccccc3Cl)CC1)N(C)CC2 (single isomer, unassigned; (+)) [Example 77]
2. Cc1cc2c(cc1O)C(C1(c3ccccc3Cl)CC1)N(C)CC2 (single isomer, unassigned; (+)) [Example 80]

Response:
1: 3200; 2: 550
